target: ATM (Homo sapiens (Human)); test: ATM in Cell Western Assay (pKAP1 in etoposide-treated MCF-7 cells); type: cell-based; conditions: pKAP1 in etoposide-treated MCF-7 cells
Where a name gives a salt, the structure may show the parent alone.
quantity.measured: IC50

Previously resolved entries follow.
The molecule CC(C)NCCOc1ncc(-c2cc3c4c(cnc3cc2F)N(C)C(=O)C42CN(c3cccc(OC(F)(F)F)c3)C2)cc1NS(C)(=O)=O showed IC50 equal to 1 to 100 nM

The molecule CN(C)c1ncc(-c2cc3c4c(cnc3cc2F)N(C)C(=O)C42CCC2)cn1 showed IC50 equal to > 100 nM

The molecule CC(C)NCCOc1ncc(-c2cc3c4c(cnc3cc2F)N(C)C(=O)C42CN(c3ncccn3)C2)cc1NS(C)(=O)=O [Example 551, hydrochloride] showed IC50 equal to > 100 nM

---
The molecule CC(C)NCCOc1ncc(-c2cc3c(cc2F)ncc2c3[C@]3(C[C@@H](c4cc[nH]c(=O)c4)C3)C(=O)N2C)cc1NS(C)(=O)=O showed IC50 equal to > 100 nM

The molecule CC(C)NCCOc1ncc(-c2cc3c4c(cnc3cc2F)N(C)C(=O)C42CN(c3ccc(-c4ccccc4)cc3)C2)cc1NS(C)(=O)=O showed IC50 equal to 1 to 100 nM

The molecule CC(C)NCCOc1ncc(-c2cc3c(cc2F)ncc2c3[C@]3(C[C@H](OC(C)C)C3)C(=O)N2C)cc1NS(C)(=O)=O showed IC50 equal to 1 to 100 nM

The molecule CC(C)NCCOc1ncc(-c2cc3c(cc2F)ncc2c3[C@]3(C[C@@H](Oc4ccccc4)C3)C(=O)N2C)cc1NS(C)(=O)=O showed IC50 equal to 1 to 100 nM

The molecule CNC(=O)c1cc(-c2ccc3ncc4c(c3c2)C2(CCC2)C(=O)N4C)cc(NS(C)(=O)=O)c1OCCCN(C)C showed IC50 equal to > 100 nM

The molecule CC(C)NCCOc1ncc(-c2cc3c4c(cnc3cc2F)N(C)C(=O)C42CN(C(=O)c3ccccc3)C2)cc1NS(C)(=O)=O showed IC50 equal to > 100 nM

The molecule COC[C@H]1C[C@]2(C1)C(=O)N(C)c1cnc3cc(F)c(-c4cnc(OCCNC(C)C)c(NS(C)(=O)=O)c4)cc3c12 showed IC50 equal to 1 to 100 nM

The molecule CC(=O)N1CC2(C1)C(=O)N(C)c1cnc3cc(F)c(-c4cnc(OCCNC(C)C)c(NS(C)(=O)=O)c4)cc3c12 showed IC50 equal to > 100 nM

The molecule COc1cc([C@H]2C[C@]3(C2)C(=O)N(C)c2cnc4cc(F)c(-c5cnc(OCCNC(C)C)c(NS(C)(=O)=O)c5)cc4c23)ccn1 showed IC50 equal to 1 to 100 nM

The molecule CC(C)NCCOc1ncc(-c2cc3c(cc2F)ncc2c3[C@]3(C[C@@H](Oc4ccccc4)C3)C(=O)N2C)cc1NS(=O)(=O)N(C)C [Example 403, hydrochloride] showed IC50 equal to > 100 nM

The molecule CC(C)NCCOc1ncc(-c2cc3c(cc2F)ncc2c3[C@]3(C[C@@H](c4ccccc4F)C3)C(=O)N2C)cc1NS(C)(=O)=O showed IC50 equal to > 100 nM

The molecule Cc1ncc(S(=O)(=O)Nc2cc(-c3cc4c5c(cnc4cc3F)N(C)C(=O)C53CN(c4ccccc4)C3)cnc2OCCNC(C)C)s1 showed IC50 equal to 1 to 100 nM

The molecule CC(C)NCCOc1ncc(-c2cc3c(cc2F)ncc2c3[C@]3(C[C@@H](C)C3)C(=O)N2C)cc1NS(C)(=O)=O showed IC50 equal to 1 to 100 nM

The molecule CC(C)NCCOc1ncc(-c2cc3c(cc2F)ncc2c3[C@]3(C[C@@H](c4cccc(Cl)c4)C3)C(=O)N2C)cc1NS(C)(=O)=O showed IC50 equal to > 100 nM

The molecule CC(C)NCCOc1ncc(-c2cc3c4c(cnc3cc2F)N(C)C(=O)C42CN(C[C@H](O)CO)C2)cc1NS(C)(=O)=O showed IC50 equal to > 100 nM

The molecule CC(C)NCCOc1ncc(-c2cc3c4c(cnc3cc2F)N(C)C(=O)C42CN(C3CCC3)C2)cc1NS(C)(=O)=O [Example 497, hydrochloride] showed IC50 equal to 1 to 100 nM

The molecule CC(C)NCCOc1ncc(-c2cc3c4c(cnc3cc2F)N(C)C(=O)C42CCC2)cc1NS(=O)(=O)C(F)F showed IC50 equal to > 100 nM

The molecule CC(C)NCCOc1ncc(-c2cc3c4c(cnc3cc2F)N(C)C(=O)C42CN(c3ccc(F)cc3)C2)cc1NS(C)(=O)=O [Example 538, hydrochloride] showed IC50 equal to 1 to 100 nM

The molecule CC(C)NCCOc1ncc(-c2cc3c4c(cnc3cc2F)N(C)C(=O)C42CN(C3CCCC3)C2)cc1NS(C)(=O)=O showed IC50 equal to 1 to 100 nM

The molecule CC(C)NCCOc1ncc(-c2cc3c(cc2F)ncc2c3[C@]3(C[C@H](C(C)(C)O)C3)C(=O)N2C)cc1NS(C)(=O)=O showed IC50 equal to 1 to 100 nM

The molecule CNC[C@H]1C[C@]2(C1)C(=O)N(C)c1cnc3cc(F)c(-c4cnc(OCCNC(C)C)c(NS(C)(=O)=O)c4)cc3c12 showed IC50 equal to > 100 nM

The molecule CN1CC2CN(c3ncc(-c4ccc5ncc6c(c5c4)C4(CCC4)C(=O)N6C)cc3NS(C)(=O)=O)CC2C1 (stereo not shown) [Example 350, formate] showed IC50 equal to 1 to 100 nM

----------
target: UniProtKB P78527; experiment: DNA-PK Enzyme-Linked Immunosorbent Assay (phosphorylation of GST-p53 (1-101) peptide); type: biochemical; details: ELISA, ATP 20 μM
Structures can show the parent of a compound that is named as a salt.
quantity.measured: IC50

The compound CC1CN(S(=O)(=O)Nc2cc(-c3ccc4ncc5c(c4c3)C3(CCC3)C(=O)N5C)cnc2OCCCN(C)C)CC(C)O1 (stereo not shown) showed IC50 equal to 1 to 100 nM

The compound Cc1cc(-c2ccc3ncc4c(c3c2)C2(CC2)C(=O)N4C)cnc1OCCCN(C)C showed IC50 equal to 1 to 100 nM

The compound Cc1ccc(S(=O)(=O)n2c(CCN3CCCCC3)cc3ncc(-c4ccc5ncc6c(c5c4)C4(CCC4)C(=O)N6C)cc32)cn1 showed IC50 equal to 1 to 100 nM

The compound Cc1ccc(S(=O)(=O)Nc2cc(-c3ccc4ncc5c(c4c3)C3(CCC3)C(=O)N5C)cnc2N2CCC(N3CCCCC3)CC2)cn1 [Example 198, hydrochloride] showed IC50 equal to < 0.5 nM

The compound CN1C(=O)C2(CCC2)c2c1cnc1ccc(-c3cnc(OCC(O)CN4CCCCC4)c(NS(C)(=O)=O)c3)cc21 (stereo not shown) showed IC50 equal to < 0.5 nM

The compound CN(C)CCCOc1ccc(-c2ccc3ncc4c(c3c2)C2(CC2)C(=O)N4C)cc1NS(=O)(=O)c1ccccc1 showed IC50 equal to 1 to 100 nM

The compound CCN(C)S(=O)(=O)Nc1cc(-c2ccc3ncc4c(c3c2)C2(CCC2)C(=O)N4C)cnc1OCCCN(C)C showed IC50 equal to 0.5 to 1 nM

----------
target: ATM (Homo sapiens (Human)); experiment: ATM in Cell Western Assay (pKAP1 in etoposide-treated MCF-7 cells); assay type: cell-based; conditions: pKAP1 in etoposide-treated MCF-7 cells
Where a name gives a salt, the structure may show the parent alone.
quantity.measured: IC50

Previously resolved entries follow.
The compound CC(C)NCCOc1ncc(-c2cc3c(cc2F)ncc2c3[C@]3(C[C@H](c4cc[nH]c(=O)c4)C3)C(=O)N2C)cc1NS(C)(=O)=O showed IC50 equal to > 100 nM

The compound CC(C)NCCOc1ncc(-c2cc3c4c(cnc3cc2F)N(C)C(=O)C42CN(C)C2)cc1NS(C)(=O)=O [Example 481, hydrochloride] showed IC50 equal to 1 to 100 nM

The compound CC(C)NCCOc1ncc(-c2cc3c(cc2F)ncc2c3[C@]3(C[C@@H](c4ccccn4)C3)C(=O)N2C)cc1NS(C)(=O)=O showed IC50 equal to > 100 nM

Continue with the next compound.
The compound COc1ccc(N2CC3(C2)C(=O)N(C)c2cnc4cc(F)c(-c5cnc(OCCNC(C)C)c(NS(C)(=O)=O)c5)cc4c23)cc1 showed IC50 equal to 1 to 100 nM

----------
molecular target: ATM (Homo sapiens (Human), UniProt Q13315); test: ATM in Cell Western Assay (pKAP1 in etoposide-treated MCF-7 cells); format: cell-based; conditions: pKAP1 in etoposide-treated MCF-7 cells
Sequence (Q13315 whole entry): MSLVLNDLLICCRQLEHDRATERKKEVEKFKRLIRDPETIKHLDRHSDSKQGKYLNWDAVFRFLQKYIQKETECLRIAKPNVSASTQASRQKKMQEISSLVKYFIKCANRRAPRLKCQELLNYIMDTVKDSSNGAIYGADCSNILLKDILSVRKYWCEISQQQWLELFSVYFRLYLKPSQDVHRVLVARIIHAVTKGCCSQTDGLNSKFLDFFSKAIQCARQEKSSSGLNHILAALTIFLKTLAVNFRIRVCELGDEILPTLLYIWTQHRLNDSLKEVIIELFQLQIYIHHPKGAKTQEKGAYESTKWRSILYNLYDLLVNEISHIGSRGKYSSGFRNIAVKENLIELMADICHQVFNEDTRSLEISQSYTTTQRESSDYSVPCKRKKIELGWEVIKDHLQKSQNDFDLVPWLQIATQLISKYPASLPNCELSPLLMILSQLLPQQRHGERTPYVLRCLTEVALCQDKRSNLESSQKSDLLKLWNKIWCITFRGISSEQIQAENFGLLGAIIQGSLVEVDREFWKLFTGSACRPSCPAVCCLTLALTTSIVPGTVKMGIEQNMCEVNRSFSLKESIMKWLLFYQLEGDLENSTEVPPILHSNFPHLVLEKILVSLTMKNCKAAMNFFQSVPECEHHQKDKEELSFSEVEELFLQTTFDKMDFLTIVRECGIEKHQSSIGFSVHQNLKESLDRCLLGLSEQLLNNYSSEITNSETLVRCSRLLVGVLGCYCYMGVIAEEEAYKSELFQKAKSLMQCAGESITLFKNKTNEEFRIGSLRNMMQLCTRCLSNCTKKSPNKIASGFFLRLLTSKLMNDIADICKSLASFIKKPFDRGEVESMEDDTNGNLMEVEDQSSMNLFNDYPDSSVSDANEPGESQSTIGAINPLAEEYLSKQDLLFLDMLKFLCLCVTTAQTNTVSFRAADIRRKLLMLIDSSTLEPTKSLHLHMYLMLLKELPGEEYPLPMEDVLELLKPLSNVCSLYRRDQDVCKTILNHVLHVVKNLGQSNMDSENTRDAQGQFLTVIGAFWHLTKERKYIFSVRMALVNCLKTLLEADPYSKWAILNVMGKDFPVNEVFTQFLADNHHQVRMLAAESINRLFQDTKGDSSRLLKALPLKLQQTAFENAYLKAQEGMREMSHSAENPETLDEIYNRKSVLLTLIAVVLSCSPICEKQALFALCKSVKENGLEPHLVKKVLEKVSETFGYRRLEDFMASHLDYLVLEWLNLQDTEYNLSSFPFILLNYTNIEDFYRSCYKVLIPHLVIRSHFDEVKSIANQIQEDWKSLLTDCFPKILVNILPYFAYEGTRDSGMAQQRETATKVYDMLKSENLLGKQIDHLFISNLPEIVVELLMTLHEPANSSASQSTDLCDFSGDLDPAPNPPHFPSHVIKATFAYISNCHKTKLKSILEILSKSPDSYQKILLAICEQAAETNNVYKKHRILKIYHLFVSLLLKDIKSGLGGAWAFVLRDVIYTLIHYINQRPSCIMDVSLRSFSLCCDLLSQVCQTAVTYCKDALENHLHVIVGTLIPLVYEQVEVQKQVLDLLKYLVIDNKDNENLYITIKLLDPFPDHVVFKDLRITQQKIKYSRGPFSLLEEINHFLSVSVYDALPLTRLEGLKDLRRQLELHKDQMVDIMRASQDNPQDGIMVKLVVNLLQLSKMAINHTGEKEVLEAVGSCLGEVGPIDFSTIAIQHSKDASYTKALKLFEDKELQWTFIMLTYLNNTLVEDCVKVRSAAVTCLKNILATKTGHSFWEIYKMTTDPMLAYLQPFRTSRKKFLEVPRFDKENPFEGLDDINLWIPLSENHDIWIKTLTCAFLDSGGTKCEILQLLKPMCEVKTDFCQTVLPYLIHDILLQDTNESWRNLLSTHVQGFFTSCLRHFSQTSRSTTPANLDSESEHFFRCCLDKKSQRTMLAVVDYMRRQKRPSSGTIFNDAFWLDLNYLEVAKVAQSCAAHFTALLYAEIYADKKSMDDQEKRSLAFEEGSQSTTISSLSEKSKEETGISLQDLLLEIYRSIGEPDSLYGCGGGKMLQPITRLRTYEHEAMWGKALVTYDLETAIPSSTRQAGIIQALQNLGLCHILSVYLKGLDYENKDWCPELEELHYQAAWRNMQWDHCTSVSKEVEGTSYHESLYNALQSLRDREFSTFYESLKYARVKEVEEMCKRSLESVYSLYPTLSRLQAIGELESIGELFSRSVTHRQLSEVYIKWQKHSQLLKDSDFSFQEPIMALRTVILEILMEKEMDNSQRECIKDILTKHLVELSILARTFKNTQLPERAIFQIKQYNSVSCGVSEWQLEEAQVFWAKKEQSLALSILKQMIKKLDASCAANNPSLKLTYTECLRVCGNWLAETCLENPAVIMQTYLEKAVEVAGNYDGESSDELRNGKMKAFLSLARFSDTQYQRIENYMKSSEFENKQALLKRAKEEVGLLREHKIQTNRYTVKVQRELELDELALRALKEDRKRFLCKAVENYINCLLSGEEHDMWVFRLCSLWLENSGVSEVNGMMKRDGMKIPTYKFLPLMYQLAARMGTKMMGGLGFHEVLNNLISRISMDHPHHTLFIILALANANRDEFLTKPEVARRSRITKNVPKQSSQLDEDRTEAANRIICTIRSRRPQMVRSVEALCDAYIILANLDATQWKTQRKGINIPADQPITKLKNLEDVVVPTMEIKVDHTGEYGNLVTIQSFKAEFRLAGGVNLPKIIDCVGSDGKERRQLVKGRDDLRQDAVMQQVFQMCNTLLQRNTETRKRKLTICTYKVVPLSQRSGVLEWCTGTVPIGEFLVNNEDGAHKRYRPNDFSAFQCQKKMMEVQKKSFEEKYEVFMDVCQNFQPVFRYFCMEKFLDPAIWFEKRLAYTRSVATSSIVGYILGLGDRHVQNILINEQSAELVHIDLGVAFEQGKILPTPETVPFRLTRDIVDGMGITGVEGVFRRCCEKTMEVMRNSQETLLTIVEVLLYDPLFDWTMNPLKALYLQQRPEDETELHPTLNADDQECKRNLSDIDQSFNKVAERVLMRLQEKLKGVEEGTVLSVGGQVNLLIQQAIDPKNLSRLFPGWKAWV
Counter-ions that a name gives are not always drawn.
quantity.measured: IC50

Previously resolved entries follow.
The compound CC(C)NCCOc1ncc(-c2cc3c(cc2F)ncc2c3[C@]3(C[C@H](O)C3)C(=O)N2C)cc1NS(C)(=O)=O [Example 381, hydrochloride] showed IC50 equal to 1 to 100 nM

The compound CC(C)NCCOc1ncc(-c2cc3c4c(cnc3cc2F)N(C)C(=O)C42CC(F)C2)cc1NS(C)(=O)=O (stereo not shown) [Example 560] showed IC50 equal to 1 to 100 nM

The compound CC(C)NCCOc1ncc(-c2cc3c(cc2F)ncc2c3[C@]3(C[C@H](N(C)c4ccccc4)C3)C(=O)N2C)cc1NS(C)(=O)=O [Example 463] showed IC50 equal to 1 to 100 nM

The compound CN1C(=O)C2(CCC2)c2c1cnc1cc(F)c(-c3cnc(N4CC(N(C)C)C4)c(NS(=O)(=O)CC#N)c3)cc21 [Example 342, hydrochloride] showed IC50 equal to > 100 nM

The compound COCc1ccc(N2CC3(C2)C(=O)N(C)c2cnc4cc(F)c(-c5cnc(OCCNC(C)C)c(NS(C)(=O)=O)c5)cc4c23)cc1 [Example 532] showed IC50 equal to 1 to 100 nM

The compound CC(C)NCCOc1ncc(-c2cc3c4c(cnc3cc2F)N(C)C(=O)C42CN(C3CCN(C)CC3)C2)cc1NS(C)(=O)=O [Example 502] showed IC50 equal to > 100 nM

The compound CN1C(=O)C2(CCC2)c2c1cnc1ccc(-c3cnc(N4CC5CC(C4)N5C)c(NS(C)(=O)=O)c3)cc21 [Example 361, formate] showed IC50 equal to > 100 nM

The compound CN1C(=O)C2(CCC2)c2c1cnc1ccc(-c3cnc(N4CCC(C)(N5CCCCC5)CC4)c(NS(C)(=O)=O)c3)cc21 [Example 354] showed IC50 equal to > 100 nM

Continue with the next compound.
The compound CC(C)NCCOc1ncc(-c2cc3c4c(cnc3cc2F)N(C)C(=O)C42CN(c3ccc(C(C)C)cc3)C2)cc1NS(C)(=O)=O [Example 530] showed IC50 equal to 1 to 100 nM
